Assay: Cytotoxic Profiling in NIH 3T3 Cell Line of Diverse Libraries Using Quantitative High-Throughput Screening; further: nearly all actives have a fitted effect of over 55% in size
Conditions: NIH 3T3 viability, CellTiter-Glo ATP luminescence, 48-72 h; series mostly up to 96.7 µM
The whole screen tested about 94,000 compounds, of which about 4,000 (4.3%) were called active. Another 29% or so got no clear call; they are omitted. The call rests on the fitted dose curve; in most records, active means well fitted inhibition curve with a large enough effect; inconclusive means small, poorly fitted or top-dose-only effect; inactive means no such curve, though single readings can be large or run the other way. Many of the other results were omitted from the sample, so actives are more common in it than they were.
Could you please pick one outcome from this set? active, inactive

Worked cases, answers included:
>  <Molecule>
O=C(NCCCc1ccccc1)C1CCc2nnc(-c3cccc(C(F)(F)F)c3)n21 (stereo not drawn)

>  <Label value>
inactive

$$$$
>  <Molecule>
Cc1cccc(-c2cccc(CN3CCC(NC(=O)Nc4ccccc4)CC3)c2)c1

>  <Label value>
active

$$$$
>  <Molecule>
O=C(Cc1ccc(F)cc1)NC1CCN(c2cn[nH]c(=O)c2)CC1

>  <Label value>
inactive

$$$$
>  <Molecule>
COCCNC(=O)C(C)[C@@H]1CC[C@@]2(C)CC[C@H](NC(=O)c3ccccc3)[C@@H](C)[C@@H]2[C@H]1O (stereo partly drawn)

>  <Label value>
inactive

$$$$
>  <Molecule>
CCCNc1cc(N2CCC(CCC(=O)Nc3ccc(C)cc3)CC2)ncn1

>  <Label value>
inactive

$$$$
>  <Molecule>
O=C(CCn1cncn1)N1CCc2[nH]nc(-c3cccc4ccccc34)c2C1

>  <Label value>
inactive

$$$$
>  <Molecule>
CN1C(=O)c2cccn2CC1C(=O)NC1CCN(Cc2ccccc2)CC1 (stereo not drawn)

>  <Label value>
inactive

$$$$
>  <Molecule>
O=C(NCc1ccccc1)c1ccc2nnc(C3CC3)n2c1

>  <Label value>
inactive

$$$$
>  <Molecule>
Cc1ccc(C(=O)N2CCC(c3n[nH]c(=O)n3Cc3ccc(F)cc3)CC2)cc1

>  <Label value>
inactive

$$$$
>  <Molecule>
O=C(c1ccccc1)N1CCCCC1c1nc(C2CC2)n[nH]1 (stereo not drawn)

>  <Label value>
inactive

$$$$

Input line: Recorded test call requested for Cc1nc(C(C)C)ncc1C(=O)N1CCN(C)C2(CCNC(=O)CC2)C1 (stereo not drawn)
Output line: inactive

Input line: Call for entry COC(=O)N1CCN(C(=O)c2cccc(-c3cccc(OC)c3)c2)CC1 :
Output line: inactive

Input line: Please share the test call associated with COCc1cc(=O)n(CC(=O)NCc2ccc(C)cc2)c(N2CCOCC2)n1 .
Output line: inactive

---

Assay: Cytotoxic Profiling in NIH 3T3 Cell Line of Diverse Libraries Using Quantitative High-Throughput Screening; further: nearly all actives have a fitted effect of over 55% in size
Settings: NIH 3T3 viability, CellTiter-Glo ATP luminescence, 48-72 h; series mostly up to 96.7 µM
Text: Cell-based phenotypic screening is a commonly used approach to discover biological pathways, novel drug targets, chemical probes and high-quality hit-to-lead molecules. Many hits identified from high-throughput screening campaign are ruled out through a series of follow-up potency, selectivity/specificity, and cytotoxicity assays. […]
Hit rate of the full screen: of about 94,000 compounds, about 4,000 (4.3%) were called active. Not shown: some 29% with an inconclusive outcome. Calls follow the shape of the dose curve; as a rule, active = well fitted inhibition curve with a large enough effect; inconclusive = small, poorly fitted or top-dose-only effect; inactive = no such curve, though single readings can be large or run the other way. The list comes from a sample in which actives are over-represented; it also holds close analogues and randomly drawn compounds.
A correct response names exactly one class from active, inactive

>  <Compound>
Cc1oc2c(c1C(=O)NCCN1CCCC1)CN(Cc1ccc(F)cc1)CC2

>  <Label value>
inactive

$$$$
>  <Compound>
CCc1cc(C(=O)N2CCC(Oc3ccccc3)(C(=O)O)CC2)cs1

>  <Label value>
inactive

$$$$

Input line: Fill in: this test's call for COC(=O)C1CCN(C(=O)CC[C@H]2CNC(=O)[C@@H]3[C@@H](CCN3Cc3cccs3)N2C)CC1 is ___
Output line: inactive

Input line: Please state the recorded outcome for this compound: O=c1c2c(n(Cc3ccccc3)n1-c1ccccc1)CN(Cc1ccn[nH]1)CC2
Output line: active

---

Assay: Cytotoxic Profiling in NIH 3T3 Cell Line of Diverse Libraries Using Quantitative High-Throughput Screening; further: nearly all actives have a fitted effect of over 55% in size
Conditions: NIH 3T3 viability, CellTiter-Glo ATP luminescence, 48-72 h; series mostly up to 96.7 µM
Among all 94,000 compounds or so, about 4,000 (4.3%) were called active. Another 29% or so got no clear call; they are omitted. Calls come from the whole dose curve; as a rule, active = well fitted inhibition curve with a large enough effect; inconclusive = small, poorly fitted or top-dose-only effect; inactive = no such curve, though single readings can be large or run the other way. The list comes from a sample in which actives are over-represented; it also holds close analogues and randomly drawn compounds.
// classify into Yes (active), No (inactive)

>  <Compound>
COC(=O)[C@@H]1C[C@H](NC(=O)c2c(Cl)cccc2Cl)CN1C

>  <Label value>
No

$$$$
>  <Compound>
O=C(NCCc1ccccc1)c1ccc2c(c1)OCCN(CCC(F)(F)F)C2

>  <Label value>
No

$$$$
>  <Compound>
Clc1ccc(-c2nnc3n2CCN(Cc2cccc4ccccc24)C3)cc1

>  <Label value>
No

$$$$
>  <Compound>
CCOCCN1C(=O)COC[C@@H]1[C@H](O)c1ccc(NC(=O)c2cnccn2)cc1

>  <Label value>
No

$$$$
>  <Compound>
CC(C)C(=O)N1CCC2(CC1)OC(=O)N(Cc1ccccc1F)C2(C)c1ccccc1 (stereo not drawn)

>  <Label value>
Yes

$$$$

Input line: // return assay outcome for CC[C@H]1CN(C(=O)Nc2ccccc2)CC[C@H]1CC(=O)Nc1ccccc1
Output line: No

Input line: What did this assay record as the result for N#Cc1cccc(CN2CCCN(S(=O)(=O)c3ccccc3)CCC(=O)NCC2)c1 ?
Output line: No

Input line: Recorded test call requested for Cc1oc2ccn(Cc3ccccc3F)c(=O)c2c1C(=O)NCCCN1CCCCC1C (stereo not drawn)
Output line: Yes

Input line: Please state the recorded outcome for this compound: O=C(NCc1cccnc1)C1CCCN(c2cnn(Cc3ccccc3)c(=O)c2)C1 (stereo not drawn)
Output line: No

Input line: Which outcome was assigned to CCN1C(=O)C2CC3(CCN(C(=O)c4cc5ccccc5[nH]4)CC3)CN2C1=O (stereo not drawn) in this test?
Output line: No

Input line: Dear colleague, could you share the recorded outcome for O=C(CN1CCC2(CC1)NC(=O)CC2C(=O)O)NCCc1ccc(F)cc1 (stereo not drawn) when you have a moment?
Output line: No

---

Experiment: Cytotoxic Profiling in NIH 3T3 Cell Line of Diverse Libraries Using Quantitative High-Throughput Screening; further: nearly all actives have a fitted effect of over 55% in size; further: potency means the concentration at half of the fitted maximal effect
Conditions: NIH 3T3 viability, CellTiter-Glo ATP luminescence, 48-72 h; series mostly up to 96.7 µM
The whole screen tested about 94,000 compounds, of which about 4,000 (4.3%) were called active. About 29% were inconclusive and are not listed. Many of the other results were omitted from the sample, so actives are more common in it than they were.
Recorded metric: Potency

>  <Compound>
O=C(O)[C@]12CCCN(Cc3ncc[nH]3)[C@@H]1CCN(Cc1ccncc1)C2

>  <Potency>
inactive

$$$$
>  <Compound>
CCC(CC)NC(=O)C1Cn2cccc2C(=O)N1Cc1cccnc1 (configuration not stated)

>  <Potency>
inactive

$$$$
>  <Compound>
O=c1cc(-c2cccnc2)oc2c(-c3cccc(CO)c3)nccc12

>  <Potency>
31.6 µM (active)

$$$$
>  <Compound>
CCCN1CCCC2(CCN(C(=O)C(=O)c3cccn3C)C2)C1=O (configuration not stated)

>  <Potency>
inactive

$$$$
>  <Compound>
CN(c1ccccc1)c1cc(=O)c2ccnc(Nc3cccc([S+](C)(=O)[O-])c3)c2o1

>  <Potency>
8.91 µM (active)

$$$$
>  <Compound>
CC(=O)NC(C)c1nnc2n1CCN([S+](=O)([O-])c1ccccc1)C2 (configuration not stated)

>  <Potency>
inactive

$$$$

Please turn your attention to the following entry.
Input line: Looking for the measured Potency of O=C(NCCc1ccccn1)c1ccc2c(c1)OCCN(c1ccccc1)C2 , can you help?
Output line: inactive
